Biological target: T1, NRAS (human, UniProt P01111 1-174, limits assumed)
T1 construct: also called Neuroblastoma-RAS; NRAS (WT)
Experiment: yeast display, cells sorted for binding to NRAS (WT);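 further: Yeast-displayed monobody variants with one or two residue substitutions, monobody sequences read from cells recovered by sorting for binding to wild-type NRAS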
quantityKind: binding result

Give reported binding result value for Mb(NRAS_24) with the FG loop of SEQ ID NO: 42 (designed binder, length of the loop entry not visible) VSSVPTKLEVVAATPTSLLISWDAPAVTVDFYVITYGETGGYAWAYQEFKVPGSKSTATISGLSPGVDYTITVYAYQVIEHIWKYYSPISINYRT
binds

Give reported binding result value for Mb(NRAS_24) with the FG loop of SEQ ID NO: 43 (designed binder, length of the loop entry not visible) VSSVPTKLEVVAATPTSLLISWDAPAVTVDFYVITYGETGGYAWAYQEFKVPGSKSTATISGLSPGVDYTITVYAYQVIESIWKYYSPISINYRT
binds

Values compiled from patent US20260263609A1.
